target: T1, Human VEGFA165 (human, UniProt P15692-4 27-191); experiment: competition ELISA on coated VEGFA, competitor VEGFR2-ECD-Fc 1 nM
T1 construct: treated as the same molecule; also called antigen VEGFA
T1 sequence (P15692 other isoform, or with tags, fused parts or gaps limits assumed): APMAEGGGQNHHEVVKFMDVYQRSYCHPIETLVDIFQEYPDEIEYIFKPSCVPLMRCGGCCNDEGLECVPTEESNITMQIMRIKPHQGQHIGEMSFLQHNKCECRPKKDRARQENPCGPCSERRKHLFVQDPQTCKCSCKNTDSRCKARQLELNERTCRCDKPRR
The binders listed here are annotated with their IC50.

{"binder": "V43 (VHH, Purified with C-terminal GGGGS-6×His) VHH: QLQLVESGGGSVQPGGSLRLSCEVSGRTFTSYTMGWFRQAPGKEREFVVAISKGGYKYDSVSLEARFTISKDNTKNTVYLQMNSLKPEDTAVYYCAGTRAYGSSRLRLANTYEYWGQGTQVTVSS", "IC50, nM": 6}
{"binder": "V21 (VHH, Purified with C-terminal GGGGS-6×His) VHH: QLQLVESGGGSVQPGGSLRLSCEVSGRTFTSYTMGWFRQAPGKEREFVVAISKGGYKYNTVSLEARFTISKDNTKNTVYLQMNSLKPEDTAVYYCAGTRAYGSSRLRLAETYEYWGQGTQVTVSS", "IC50, nM": 4.62}
{"binder": "V31 (VHH, Purified with C-terminal GGGGS-6×His) VHH: QLQLVESGGGSVQPGGSLRLSCEVSGRTFASYTMGWFRQAPGKEREFVVAISKGGYKYDAVSLEARFTISKDNTKNTVYLQMNSLKPEDTAVYYCAGTRAYGSSRLRLAKTYEYWGQGTQVTVSS", "IC50, nM": 2.07}
{"binder": "V14 (VHH, Purified with C-terminal GGGGS-6×His) VHH: QLQLVESGGGSVQPGGSLRLSCEVSGRTFTSYTMGWFRQAPGKEREFVVAISKGGYKYNTVSLEARFTISKDNTKNTVYLQMNSLKPEDTAVYYCAGTRAYGSSRLRLANTYEYWGQGTQVTVSS", "IC50, nM": 4.58}
{"binder": "V36 (VHH, Purified with C-terminal GGGGS-6×His) VHH: QLQLVESGGGSVQPGGSLRLSCEVSGRTFASYTMGWFRQAPGKEREFVVAISKGGYKYDSVSLEARFTISKDNTKNTVYLQMNSLKPEDTAVYYCAGTRAYGSSRLRLADTYEYWGQGTQVTVSS", "IC50, nM": 4.72}
{"binder": "V29 (VHH, Purified with C-terminal GGGGS-6×His) VHH: QLQLVESGGGSVQPGGSLRLSCEVSGRTFSSYTMGWFRQAPGKEREFVVAISKGGYKYDSVSLEARFTISKDNTKNTVYLQMNSLKPEDTAVYYCAGTRAYGSSRLRLANTYEYWGQGTQVTVSS", "IC50, nM": 2.98}
{"binder": "V33 (VHH, Purified with C-terminal GGGGS-6×His) VHH: QLQLVESGGGSVQPGGSLRLSCEVSGRTFSSYTMGWFRQAPGKEREFVVAISKGGYKYDSVSLEARFTISKDNTKNTVYLQMNSLKPEDTAVYYCAATRAYGSSRLRLAKTYEYWGQGTQVTVSS", "IC50, nM": 3.91}
{"binder": "V30 (VHH, Purified with C-terminal GGGGS-6×His; also called candidate antibody V30) VHH: QLQLVESGGGSVQPGGSLRLSCEVSGRTFSSYTMGWFRQAPGKGREFVVAISKGGYKYDAVSLEARFTISKDNTKNTVYLQMNSLKPEDTAVYYCAATRAYGSSRLRLAKTYEYWGQGTQVTVSS", "IC50, nM": 3.54}
